# ASSAY: Stability in human plasma assessed as parent compound remaining at 40 uM measured after 2 hrs by LC-MS/MS analysis
# Assay type: ADME, cell-free
# PARTICULARS: read-out: Stability
VALUE_TYPE: remaining at 2 h, 40 µM (%)
Write it as a number; the unit % goes unstated.

Ask: So what does the record say about remaining at 2 h, 40 µM for CC(C)COC(=O)n1c(=O)ccn([C@@H]2O[C@H](CO[P@@](=O)(N[C@@H](C)C(=O)OC(C)C)Oc3ccccc3)[C@@H](O)[C@@]2(C)F)c1=O ?
Result: 17.2

New cases:
Ask: Name the recorded remaining at 2 h, 40 µM for CC(C)OC(=O)OC(C)n1c(=O)ccn([C@@H]2O[C@H](CO[P@@](=O)(N[C@@H](C)C(=O)OC(C)C)Oc3ccccc3)[C@@H](O)[C@@]2(C)F)c1=O (some centres not stated) .
Result: 85.3

====

# ASSAY: Stability in human plasma assessed as parent compound remaining at 40 uM measured after 0.5 hrs by LC-MS/MS analysis
# Format: ADME, cell-free
# PARTICULARS: read-out: Stability
Reported remaining at 0.5 h, 40 µM by item:
API: value field is a number in %; no unit string.

Ask: // query remaining at 0.5 h, 40 µM value for entry CC(C)OC(=O)OC(C)n1c(=O)ccn([C@@H]2O[C@H](CO[P@@](=O)(N[C@@H](C)C(=O)OC(C)C)Oc3ccccc3)[C@@H](O)[C@@]2(C)F)c1=O (some centres not stated)
Result: 92.8

Pending molecule:
Ask: Dear colleague, I am looking for the recorded remaining at 0.5 h, 40 µM of the following molecule: CC(C)COC(=O)n1c(=O)ccn([C@@H]2O[C@H](CO[P@@](=O)(N[C@@H](C)C(=O)OC(C)C)Oc3ccccc3)[C@@H](O)[C@@]2(C)F)c1=O
Result: 87.3

====

List of inhibition at 20 µM values.
# Tested on: Hepatitis C virus
# ASSAY: Antiviral activity against HCV genotype 1b replicon infected in human HuH7 cells at 20 uM after 72 hrs by bright-glo luciferase reporter gene assay relative to control
# Type: functional, Hepacivirus hominis
# PARTICULARS: subtype 1b, Huh-7, 72 h
Only the number, expressed in %, is required.

Ask: // fetch Hepatitis C virus inhibition at 20 µM for CC(C)OC(=O)[C@H](C)N[P@](=O)(OC[C@H]1O[C@@H](n2ccc(OCc3ccccc3)nc2=O)[C@](C)(F)[C@@H]1O)Oc1ccccc1
Result: 0

Ask: Field: inhibition at 20 µM (Hepatitis C virus). Entry: COc1ccn([C@@H]2O[C@H](CO[P@@](=O)(N[C@@H](C)C(=O)OC(C)C)Oc3ccccc3)[C@@H](O)[C@@]2(C)F)c(=O)n1
Result: 0

Ask: What reported inhibition at 20 µM corresponds to CC(C)OC(=O)[C@H](C)N[P@](=O)(OC[C@H]1O[C@@H](n2ccc(OC3CC3)nc2=O)[C@](C)(F)[C@@H]1O)Oc1ccccc1 on Hepatitis C virus?
Result: 0

Ask: // fetch Hepatitis C virus inhibition at 20 µM for CC(C)OC(=O)[C@H](C)N[P@](=O)(OC[C@H]1O[C@@H](n2ccc(=O)[nH]c2=O)[C@](C)(F)[C@@H]1O)Oc1ccccc1
Result: 99.9

Ask: // map C=CCOc1ccn([C@@H]2O[C@H](CO[P@@](=O)(N[C@@H](C)C(=O)OC(C)C)Oc3ccccc3)[C@@H](O)[C@@]2(C)F)c(=O)n1 to recorded inhibition at 20 µM (system: Hepatitis C virus)
Result: 0

Ask: For the record CC(C)=CCOc1ccn([C@@H]2O[C@H](CO[P@@](=O)(N[C@@H](C)C(=O)OC(C)C)Oc3ccccc3)[C@@H](O)[C@@]2(C)F)c(=O)n1 , what value of inhibition at 20 µM is listed for Hepatitis C virus?
Result: 99.9

Ask: Request body: readout inhibition at 20 µM, system Hepatitis C virus, query CC(C)OC(=O)[C@H](C)N[P@](=O)(OC[C@H]1O[C@@H](n2ccc(Oc3ccccc3)nc2=O)[C@](C)(F)[C@@H]1O)Oc1ccccc1 . Return the value.
Result: 0

Ask: Can you look up inhibition at 20 µM on Hepatitis C virus for C=CCNc1ccn([C@@H]2O[C@H](CO[P@@](=O)(N[C@@H](C)C(=O)OC(C)C)Oc3ccccc3)[C@@H](O)[C@@]2(C)F)c(=O)n1 ?
Result: 0

Ask: Form field - read-out: inhibition at 20 µM; system: Hepatitis C virus; submitted item: C#CCOc1ccn([C@@H]2O[C@H](CO[P@@](=O)(N[C@@H](C)C(=O)OC(C)C)Oc3ccccc3)[C@@H](O)[C@@]2(C)F)c(=O)n1
Result: 46.9

====

# ASSAY: Stability in human liver microsomes assessed as parent compound remaining at 0.1 uM preincubated with MgCl2 for 10 mins followed by NADPH addition measured after 30 mins by LC-MS/MS analysis
# Type: ADME, Microsome
# PARTICULARS: liver microsomes, read-out: Stability
VALUE_TYPE: remaining at 0.5 h, 0.1 µM (%)
Output spec: scalar in %, unitless text.

Ask: Please give the measured remaining at 0.5 h, 0.1 µM for this compound: CC(C)COC(=O)n1c(=O)ccn([C@@H]2O[C@H](CO[P@@](=O)(N[C@@H](C)C(=O)OC(C)C)Oc3ccccc3)[C@@H](O)[C@@]2(C)F)c1=O
Result: 0

====

# ASSAY: Cytotoxicity against human HuH7 cells infected with HCV genotype 1b replicon after 72 hrs by CellTiter-Fluor reagent based fluorescence assay
# Type: cell-based, Huh-7
VALUE_TYPE: CC50 at 72 h

Ask: Recorded CC50 at 72 h for CC(C)OC(=O)[C@H](C)N[P@](=O)(OC[C@H]1O[C@@H](n2ccc(=O)[nH]c2=O)[C@](C)(F)[C@@H]1O)Oc1ccccc1 [SOFOSBUVIR] , please?
Result: > 20 µM

Ask: Item CCOC(=O)OC(C)n1c(=O)ccn([C@@H]2O[C@H](CO[P@@](=O)(N[C@@H](C)C(=O)OC(C)C)Oc3ccccc3)[C@@H](O)[C@@]2(C)F)c1=O (stereo partly specified) has what recorded CC50 at 72 h?
Result: > 10 µM

Ask: What value of measured CC50 at 72 h is listed for CC(C)OC(=O)[C@H](C)N[P@](=O)(OC[C@H]1O[C@@H](n2ccnc(N)c2=O)[C@](C)(O)[C@@H]1O)Oc1ccccc1 ?
Result: 59.6 µM

Ask: What value of CC50 at 72 h has been recorded for this entry: CC(C)OC(=O)[C@H](C)N[P@](=O)(OC[C@H]1O[C@@H](n2ccc(=O)n(C(C)OC(=O)OC3CCCCC3)c2=O)[C@](C)(F)[C@@H]1O)Oc1ccccc1 (stereo partly specified)
Result: > 10 µM

Ask: Need CC50 at 72 h, item CC(C)OC(=O)[C@H](C)N[P@](=O)(OC[C@H]1O[C@@H](n2ccc(OC3CC3)nc2=O)[C@](C)(F)[C@@H]1O)Oc1ccccc1
Result: > 20 µM

Ask: What value of CC50 at 72 h has been reported for the following compound? CC=CCOc1ccn([C@@H]2O[C@H](CO[P@@](=O)(N[C@@H](C)C(=O)OC(C)C)Oc3ccccc3)[C@@H](O)[C@@]2(C)F)c(=O)n1 (mixture of isomers)
Result: > 100 µM

Ask: For the compound shown here, C[C@@]1(O)[C@H](O)[C@@H](CO)O[C@H]1n1cc(Br)ncc1=O , give the reported CC50 at 72 h.
Result: > 100 µM

Ask: Could you tell me which CC50 at 72 h is on file for CCNc1nccn([C@@H]2O[C@](C)(CO[P@@](=O)(N[C@@H](C)C(=O)OC(C)C)Oc3ccccc3)[C@@H](O)[C@H]2O)c1=O ?
Result: > 100 µM

Ask: Name the recorded CC50 at 72 h for CCOC(=O)OCn1c(=O)ccn([C@@H]2O[C@H](CO[P@@](=O)(N[C@@H](C)C(=O)OC(C)C)Oc3ccccc3)[C@@H](O)[C@@]2(C)F)c1=O .
Result: > 10 µM

Ask: I would be grateful if you could share the reported CC50 at 72 h for CC(C)OC(=O)[C@H](C)N[P@](=O)(OC[C@@]1(C)O[C@@H](n2ccnc(N)c2=O)[C@H](O)[C@@H]1O)Oc1ccccc1 .
Result: > 100 µM

Ask: What does the data say about its CC50 at 72 h? Entry: CCNc1nccn([C@@H]2O[C@](C)(CO)[C@@H](O)[C@H]2O)c1=O
Result: > 100 µM

Ask: Endpoint output: CC50 at 72 h of CC(C)OC(=O)OC(C)n1c(=O)ccn([C@@H]2O[C@H](CO[P@@](=O)(N[C@@H](C)C(=O)OC(C)C)Oc3ccccc3)[C@@H](O)[C@@]2(C)F)c1=O (stereo partly specified) . Value?
Result: > 10 µM

Ask: # input compound: C[C@]1(CO)O[C@@H](n2ccnc(N)c2=O)[C@H](O)[C@@H]1O ; wanted: its CC50 at 72 h
Result: > 100 µM

Ask: Fill in: CC50 at 72 h of CC(C)COC(=O)n1c(=O)ccn([C@@H]2O[C@H](CO[P@@](=O)(N[C@@H](C)C(=O)OC(C)C)Oc3ccccc3)[C@@H](O)[C@@]2(C)F)c1=O is ___
Result: > 10 µM
